All figures here come from paper PMC6259458.

Test system: methicilin resistant Staphylococcus aureus H 5996/08
Test: In vitro anti-bacterial susceptibility, Mueller-Hinton broth
Format: cell-based
Settings: MRSA; methicillin-resistant Staphylococcus aureus, 48 h, MIC = IC90 value; NA = no significant activity; read-out: MIC MRSA 48 h
VALUE_KIND: MIC (µM)

INSERT INTO measurements (compound, value_kind, units_label, relation_symbol, obs_value) VALUES
  ('COc1ccccc1NC(=O)c1ccccc1O [Compound 3, 2-Hydroxy-N-(2-methoxyphenyl)benzamide]', 'MIC', 'µM', '>', 500),
  ('CC1(C)S[C@@H]2[C@H](NC(=O)Cc3ccccc3)C(=O)N2[C@H]1C(=O)O [PEN, Penicillin G, reference compound]', 'MIC', 'µM', '=', 125),
  ('Cc1cccc(C)c1NC(=O)c1ccccc1O [Compound 2]', 'MIC', 'µM', '>', 500),
  ('CCOc1ccccc1NC(=O)c1ccccc1O [Compound 4, N-(2-Ethoxyphenyl)-2-hydroxybenzamide]', 'MIC', 'µM', '=', 125),
  ('Cc1ccccc1NC(=O)c1ccccc1O [Compound 1, 2-Hydroxy-N-(2-methylphenyl)benzamide]', 'MIC', 'µM', '=', 250),
  ('CCCOc1ccccc1NC(=O)c1ccccc1O [Compound 5, 2-Hydroxy-N-(2-propoxyphenyl)benzamide]', 'MIC', 'µM', '=', 31.2);
